target: UniProtKB P22607
Sequence (P22607 23-806): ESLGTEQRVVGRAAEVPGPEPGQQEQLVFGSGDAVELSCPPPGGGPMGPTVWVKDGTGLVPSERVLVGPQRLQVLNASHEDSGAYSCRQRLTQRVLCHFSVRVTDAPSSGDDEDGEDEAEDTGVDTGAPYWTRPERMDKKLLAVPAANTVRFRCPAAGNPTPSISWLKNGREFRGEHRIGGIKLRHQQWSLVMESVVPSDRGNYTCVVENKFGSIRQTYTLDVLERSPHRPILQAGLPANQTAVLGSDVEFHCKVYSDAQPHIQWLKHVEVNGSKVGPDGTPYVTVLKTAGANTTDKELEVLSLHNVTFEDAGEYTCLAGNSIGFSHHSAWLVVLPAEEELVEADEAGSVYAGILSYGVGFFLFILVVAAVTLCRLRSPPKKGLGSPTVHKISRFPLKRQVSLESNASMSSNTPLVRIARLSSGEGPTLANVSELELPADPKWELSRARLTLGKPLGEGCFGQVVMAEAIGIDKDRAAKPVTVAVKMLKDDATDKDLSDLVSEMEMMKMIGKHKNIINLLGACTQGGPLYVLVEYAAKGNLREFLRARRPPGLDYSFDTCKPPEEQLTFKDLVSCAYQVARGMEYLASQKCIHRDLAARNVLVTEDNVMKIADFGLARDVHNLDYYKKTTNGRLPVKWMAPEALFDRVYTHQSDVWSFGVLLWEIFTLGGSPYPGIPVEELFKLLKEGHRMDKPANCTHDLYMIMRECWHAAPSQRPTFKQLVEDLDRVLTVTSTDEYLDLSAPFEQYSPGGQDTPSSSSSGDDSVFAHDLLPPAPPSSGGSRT
Measurement label: IC50

Cc1c(-c2cc(OC(c3ccccn3)C(C)(C)C)n3c(C#N)cnc3c2)nnn1C1CCN(C#N)CC1 (single isomer, unassigned) [Example 264] ... < 100 nM
Cc1c(-c2cc(OC(CO)c3ccc(F)cn3)c3c(C#N)cnn3c2)cnn1C1CCN(C#N)CC1 (single isomer, unassigned; isomer 1) [Example 43] ... < 50 nM
COc1cc(-c2cnn(C3CCN(C4CN(C#N)C4(C)C)CC3)c2C)cn2ncc(C#N)c12 (single isomer, unassigned) [Example 173] ... < 50 nM
Cc1c(-c2cc(OC(C)c3cncc(C(F)(F)F)c3)n3c(C#N)cnc3c2)nnn1C1CCN(C#N)CC1 (single isomer, unassigned; isomer 1) [Example 41] ... < 50 nM
COc1cc(-c2cnn(C3CN([C@@H]4CCN(C#N)C4)C3)c2C)cn2ncc(C#N)c12 [Example 222] ... < 50 nM

Could you now look at the following molecule, please?
### Prompt // query IC50 value for entry Cc1c(-c2cc(OC(CO)c3ccc(F)cn3)n3c(Cl)cnc3c2)nnn1C1CCN(C#N)CC1 (single isomer, unassigned; isomer 2) [Example 47]
### Response < 50 nM
